tested on: PC-3M; experiment: Cytotoxicity against human PC-3M cells assessed as reduction in cell viability by CCK-8 assay; assay type: functional, cell-based
Recorded IC50 by entry

Sample answers from the record:
1. C=C(C)[C@@H]1CC[C@]2(C(=O)OCCCCCn3cc(CCN)c4ccccc43)CC[C@]3(C)[C@H](C[C@@H](O)[C@@H]4[C@@]5(C)C(CC(=O)OC)OC(C)(C)C5CC[C@]43C)[C@@H]12 (stereo not given in full) ... 3.87 µM
2. C=C(C)[C@@H]1CC[C@]2(C(=O)OCCCCCCn3ccnc3)CC[C@]3(C)[C@H](C[C@H]4OC(=O)C[C@@H](O)[C@]5(C)[C@@H]4[C@@]3(C)CC[C@H]5C(=C)C)[C@@H]12 ... 23.2 µM
3. C=C(C)[C@@H]1CC[C@]2(C(=O)O)CC[C@]3(C)[C@H](C[C@H]4OC(=O)C[C@@H](O)[C@]5(C)[C@@H]4[C@@]3(C)CC[C@H]5C(=C)C)[C@@H]12 ... 134 µM
4. C=C(C)[C@@H]1CC[C@]2(C(=O)OCCCn3cnc(C)c3)CC[C@]3(C)[C@H](C[C@H]4OC(=O)C[C@@H](O)[C@]5(C)[C@@H]4[C@@]3(C)CC[C@H]5C(=C)C)[C@@H]12 ... 18.5 µM

# input Query for PC-3M: what IC50 does the record show for C=C(C)[C@@H]1CC[C@]2(C(=O)OCCCCCCn3cnc(C)c3)CC[C@]3(C)[C@H](C[C@H]4OC(=O)C[C@@H](O)[C@]5(C)[C@@H]4[C@@]3(C)CC[C@H]5C(=C)C)[C@@H]12 ?
# output 12.2 µM
